Tested on: HCT-15 colon
assay: NCI tumour cell line growth inhibition, 48 h
Where a SMILES comes first, the peptide text is derived from it. The star is where a group is joined. OBn = c1ccc(CO*)cc1
quantity.name: TGI

• NC(CCC(=O)OCc1ccccc1)C(=O)NC(CCC(=O)OCc1ccccc1)C(=O)O (centres undefined) (H-Glu(OBn)-Glu(OBn)-OH; configuration not given here) = > 100 µM
• CC(C)(CCCCC(C)(C)NCC1COc2ccccc2O1)NCC1COc2ccccc2O1 (centres undefined) = > 10 µM
• S=C1NN=C2C(=C3CCCC4C5CCCCC5N2C34)N1 (centres undefined) = > 100 µM
• Nc1c(Cl)c([N+](=O)[O-])cc2c1OCCCCO2 = > 100 µM
• CC1(C)C2CCC13C(=O)C1OC3(C2)C2C(=O)c3c(O)ccc(O)c3C(=O)C12 (centres undefined) = > 54 µM
• O=C(O)Cc1[nH]cnc1C(=O)O = > 100 µM
• CC(C)(C)C(=O)Nc1cccc(-c2ccc[nH]2)n1 = > 100 µM
• CN(CCO)c1nc2c(c(=O)[nH]1)CNCC2 = > 100 µM
• CC1=CCC[C@]2(C)C1=CC(=O)O[C@H]2c1ccoc1 = > 100 µM
• O=C(O)c1cccc(CC(Br)C(=O)O)c1 (centres undefined) = > 100 µM
• CC(C)N(c1cc2c(cc1F)c(=O)c(C(=O)O)cn2-c1ccc(N2CCN(C)CC2)cn1)C(C)C = > 100 µM
• Nc1nncs1 = 4920 µM
• C[C@H](CCC1=NCCN1)[C@H]1CC[C@H]2[C@@H]3CC[C@@H]4C[C@H](O)CC[C@]4(C)[C@H]3CC[C@]12C = > 50.2 µM
• COc1cc(C(=O)n2nc(N3CCN(C)CC3)c3cc(N)ccc32)cc(OC)c1OC = > 100 µM
• COc1ccc(-n2cnc3c(NC(C)(C)C(=O)O)ncnc32)cc1 = > 100 µM
• COc1ccc(-c2cc(-c3ccco3)c(C#N)c(=S)n2C2OC(CO)C(O)C(O)C2O)cc1 (centres undefined) = > 100 µM
• C=CCN(N=O)C(=O)N(CCC)CCCCC(NC(C)=O)C(=O)NCc1ccccc1 (centres undefined) = > 100 µM
• COc1cc(/C=N/NC2=NCCCN2)ccc1O = > 100 µM
• Cc1nc2ccc(N=NN(C)C)cc2[nH]1 = > 100 µM
• COC(=O)C1C(=O)O[C@@H](c2ccc(OC)cc2OC)C1C(=O)OC (some centres undefined) = > 100 µM
• CNC(=S)NNC1=NCCCCN1 = > 100 µM
• Cc1c(CCl)c(=O)oc2c(C)c3occ(CCl)c(=O)c3cc12 = 64.6 µM
• CCN(CC)c1ccc2c(c1)N=C1N=CC=CN1C2(c1ccc(N(C)C)cc1)c1ccc(N(C)C)cc1 = 28.1 µM
• C#C[C@@]1(O)[C@@H](CO)O[C@@H](n2cc(F)c3c(N)ncnc32)[C@@H]1O = 3.19 µM
• CN(C)CC1CCn2c(c(C3=C(c4cn(C)c5ccccc45)C(=O)NC3=O)c3ccccc32)C1 (centres undefined) = 10.1 µM
• COc1ccc2c(c1)[n+]([O-])c(-c1nc3ccccc3s1)c(N)[n+]2[O-] = > 100 µM
• COC(=O)C#Cc1ccc([N+](=O)[O-])cc1 = 1.6 µM
• COc1cc2c(cc1OC)[C@@]1(C)C(=O)c3cc4c(cc3[C@H]1N(C)C2=O)OCO4 = > 100 µM
• Cn1c2cccc3nnc4cccc(c4c32)n1C = > 100 µM
• O=C1c2ccccc2C(=O)c2c(O)c(O)cc(O)c21 = > 100 µM
• Nc1nccc(Nc2ccc(S(N)(=O)=O)cc2)n1 = > 100 µM
• COc1cc(-c2c(C)c(C)nc(OC)c2C#N)cc(OC)c1OC = > 100 µM
• O=C(/C=C\c1ccccc1-c1ccccc1)c1ccccc1 = > 100 µM
• COc1ccccc1NC(=O)C1=C(C)NC(C)=C(C(=O)Nc2ccccc2OC)C1c1ccccc1OC = > 100 µM
• O=C1/C(=C/C(Cl)=C/c2ccccc2)SC(=S)N1CCc1ccc(O)cc1 = 11.2 µM
• Cc1ncc([N+](=O)[O-])n1CCNC(=O)CCn1ccnc1[N+](=O)[O-] = > 100 µM
• N=C(N)C1CN(CC=O)C(=O)NC1=O (centres undefined) = > 100 µM
• CCCCCCCCCCCC(=O)OCC1OC(n2cc(F)c(=O)[nH]c2=O)C(N)C(O)C1O (centres undefined) = > 100 µM
• C=CC(c1ccccc1)C1(O)c2cccc(O)c2C(=O)c2c(O)cccc21 (centres undefined) = 29.4 µM
• CCn1c(=O)c2c3ccc(O)cc3oc2c2ccc(O)cc21 = > 100 µM
• O=C(O)/C(Cl)=C(\Cl)C(=O)Nc1ccccc1 = > 100 µM
• O=C(Nc1ccc(Br)c(Cl)c1)c1cc(F)ccc1O = 6.66 µM
• O=C1/C(=C/c2ccc(Cl)cc2)CN(C(=O)C(Cl)Cl)C/C1=C\c1ccc(Cl)cc1 = 0.793 µM
• COC(=O)C1=CC2OC1(C)C1(CC1)C2=O (centres undefined) = 40 µM

Values were extracted from PubChem BioAssay (NCI).
